This collection of values is drawn from ChEMBL document CHEMBL1128048.

experiment: Compound was evaluated for catalytic constant, Kcat; type: ADME
MEASURED QUANTITY: k cat (s⁻¹)
Report as a plain number; the unit s⁻¹ is understood.

Cc1ccc(/C=C\C(=O)n2ccnc2)s1 yielded k cat of 0.0012

CCOC(=O)N/C(=C/c1ccc(C)s1)C(=O)n1ccnc1 yielded k cat of 0.0013

CCOC(=O)/C(=C\c1ccc(C)s1)NC(=O)[C@H](Cc1ccccc1)NC(C)=O yielded k cat of 0.0033

CCOC(=O)/C(=C\c1ccc(C)s1)NC(=O)[C@H](C)NC(C)=O yielded k cat of 0.0033
